Each record here notes measured Tm.
- assay_info: melting temperature; fluorescence melt of hairpins on a sequencing array, two-state fit, raised by 9.35 °C to match UV melts
- experimental_conditions: sodium 0.088 M
Form entry: value (°C) — number only.

sequence_text | Tm (°C)
GATCCTCGCGAGGATC ((((((....)))))) | 60.4
GAAAGGCGAAAGCCTTC (((.(((....)))))) | 49.6
GAGCCTGGAAACAGGTTC ((.((((....)))).)) | 49.5
GCGTAGGGACGC ((((....)))) | 52
GCCGCGCGAAAGCAGGGC (((..((....))..))) | 61.5

Tm reading for CGGACGGAAACGTTTCCG ((((((....)))..))) : 46.4

Tm reading for GCGGTTACCCGC ((((....)))) : 56.7

Tm reading for GTCAACTCGAAAGAGGAC (((..(((....)))))) : 33.2

Tm reading for GCTGTCGAAAGACGAAGC ((((((....)))..))) : 44.3

Tm reading for GCGTACGAAAGTACACGC ((((((....)))..))) : 52.6

Tm reading for GATCGCATGTGCGATC ((((((....)))))) : 68.3

----------
- assay_info: folding enthalpy; higher = less favourable; fluorescence melt of hairpins on a sequencing array, two-state fit
- experimental_conditions: sodium 0.088 M
Threshold rule: folding enthalpy greater than or equal to -20 kcal/mol is True; below that, False.

Reference set (4 entries):
sequence_text | label_class
GGACAAACGAAAGTTTCC (((..(((....)))))) | True
GCGCTGCCGAAAGGCCGC (((..(((....)))))) | True
GATCCGATTACGGATC ((((((....)))))) | False
GCAAACGAAAGTTGGTGC ((((((....)))..))) | False

Field: next sequence
Item GCGATATTTCGC ((((....)))) with folding enthalpy of -20 kcal/mol or above?
False

----------
Each record here notes measured Tm.
- assay_info: melting temperature; fluorescence melt of hairpins on a sequencing array, two-state fit, raised by 9.35 °C to match UV melts
- experimental_conditions: sodium 0.088 M
Form entry: value (°C) — number only.

Completed entries (count: 5):
sequence_text | unit_info | number
GATCCTGATTAGGATC ((((((....)))))) | °C | 51.3
GGGTTTGGAAACAGATCC ((.(.((....)).).)) | °C | 29.9
CGCAACGGAAACGTAGCG (((.(((....))).))) | °C | 53.4
GGAGGCGAAAGCCGATCC ((((((....)))..))) | °C | 51.8
GCTGACGAAAGTCAAGC ((((((....))).))) | °C | 56.3

Tm reading for GATCGCAGTGGCGATC ((((((....)))))) : 67.5

Tm reading for GCTCCAGGAAACCAGAGC ((((..(....)..)))) : 34.4

Tm reading for GATCTACGCGTAGATC ((((((....)))))) : 55.5

----------
- assay_info: melting temperature; fluorescence melt of hairpins on a sequencing array, two-state fit, raised by 9.35 °C to match UV melts
- experimental_conditions: sodium 0.088 M
Threshold rule: Tm greater than or equal to 50 °C is 1; below that, -1.

Reference set (5 entries):
sequence_text | label_class
GCAAAGCGAAAGCTACGC ((..(((....)))..)) | -1
GTTATTCGAAAGAACAAC (((.(((....))).))) | -1
GCGTCGCGAAAGCGGGGC ((..(((....)))..)) | 1
GATCTAAGTATAGATC ((((((....)))))) | -1
GGTGGTGGAAACACTACC (((.(((....))).))) | 1

Item GGTTTATCGAAAGATACC (((..(((....)))))) with Tm of 50 °C or above?
-1

Item GATCAACGGATTGATC ((((((....)))))) with Tm of 50 °C or above?
-1

Item GTAGGGGGAAACCTCTAC ((((.((....)).)))) with Tm of 50 °C or above?
-1

----------
- assay_info: folding enthalpy; higher = less favourable; fluorescence melt of hairpins on a sequencing array, two-state fit
- experimental_conditions: sodium 0.088 M
Each record here notes measured folding enthalpy.
Reply with the number, then its unit.

Completed entries (count: 3):
sequence_text | folding enthalpy
GCGCTGCGAAAGCCCCGC (((..((....))..))) | -22.5 kcal/mol
GTTGCTGGAAACAGCGAC ((.((((....)))).)) | -39.6 kcal/mol
GAAGAGGGAAACCTCTTC (((((((....))))))) | -33.5 kcal/mol

folding enthalpy reading for GGTTAAGGAAACCTAACC (((((.(....).))))) : -25 kcal/mol

folding enthalpy reading for GATATGCGAAAGCACATC (((.(((....))).))) : -19.1 kcal/mol

folding enthalpy reading for GCTGAGGCGAAAGCCAGC (((..(((....)))))) : -22.3 kcal/mol

folding enthalpy reading for CGATACGGAAACGTCTCG (((.(((....))).))) : -33.7 kcal/mol

folding enthalpy reading for GATCCTAATGAGGATC ((((((....)))))) : -34.1 kcal/mol

folding enthalpy reading for GCGTACGAAAGTAACGC ((((((....))).))) : -40.2 kcal/mol

folding enthalpy reading for GACTAACGAAAGTTTGTC (((.(((....))).))) : -30.9 kcal/mol

folding enthalpy reading for GGTAACGAAAGTTGACC ((((((....))).))) : -20.6 kcal/mol

folding enthalpy reading for CGCAGCCGGAAACGGGCG (((..(((....)))))) : -20 kcal/mol

folding enthalpy reading for GATCTTAGTAAAGATC ((((((....)))))) : -30.3 kcal/mol

folding enthalpy reading for GTTGGCGGAAACGTCGAC ((.(.((....)).).)) : -19.1 kcal/mol

folding enthalpy reading for GACCACGAAAGTGTAGTC ((((((....)))..))) : -18.6 kcal/mol

folding enthalpy reading for GAACTCCGAAAGGATTTC (((.(((....))).))) : -23.5 kcal/mol

folding enthalpy reading for GGATTCGAAAGAATCTCC ((((((....)))..))) : -14.2 kcal/mol

folding enthalpy reading for GATCGTGATAACGATC ((((((....)))))) : -40.2 kcal/mol

folding enthalpy reading for GATCTCGGGGAGATC ((((((...)))))) : -30.2 kcal/mol

folding enthalpy reading for GCGGAGTCCGC ((((...)))) : -25.6 kcal/mol

folding enthalpy reading for GTTTAGGAAACTAAAC ((((((....)))))) : -30.6 kcal/mol

folding enthalpy reading for GGCCTTGGAAACAAAGCC (((.(((....))).))) : -25.8 kcal/mol

----------
- assay_info: folding enthalpy; higher = less favourable; fluorescence melt of hairpins on a sequencing array, two-state fit
- experimental_conditions: sodium 0.088 M
Threshold rule: folding enthalpy greater than or equal to -70 kJ/mol is yes (1); below that, no (0).

sequence_text | label_class
GCCCAGCGAAAGCCTGGC (((..((....))..))) | yes (1)
GCGCAGCGAAAGCTATGC ((..(((....)))..)) | yes (1)
GATAACGAAAGTTAATC ((((((....))).))) | yes (1)
GGGATCCGAAAGGACCCC (((.(((....))).))) | no (0)

Item GAACCTGGAAACAGGCTC ((.((((....)))).)) with folding enthalpy of -70 kJ/mol or above?
no (0)

----------
- assay_info: melting temperature; fluorescence melt of hairpins on a sequencing array, two-state fit, raised by 9.35 °C to match UV melts
- experimental_conditions: sodium 0.088 M
hey, just use satisfied if measured Tm is less than 50 °C, otherwise not satisfied

Reference set (8 entries):
sequence_text | label_class
GGTTGCACGAAAGTGACC (((..(((....)))))) | satisfied
GATCAGAGACTGATC ((((((...)))))) | satisfied
GCGCCCGAAAGGGGCCGC ((((((....)))..))) | not satisfied
GTTTCCGAAAGGATGAAC ((((((....)))..))) | satisfied
GCTAGCGGAAACGTTGGC ((.(.((....)).).)) | satisfied
GCAGTGAAAACTGC (((((....))))) | not satisfied
GTGGGACCGAAAGGTCAC (((..(((....)))))) | not satisfied
GCCCCGCGAAAGCGATGC ((..(((....)))..)) | satisfied

Field: next sequence
Determine if GAGTAACGAAAGTTGCTC (((.(((....))).))) shows Tm strictly lower than 50 °C.
not satisfied
